Let's look at some molecules and their measured %Inh.
# Test system: MINK
# Construct: gene MINK1
# measurement context: concentration: 1 μM, replicates: in singlicate; n = 1;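 note: KINOMEscan kinase panel screen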
Write down the value, and be sure its unit follows.

Examples from the recorded data:
# molecule, %Inh
data = [
    ("COc1cccc(CC(=O)N2CCc3cc(-c4cn(C)c5ncnc(N)c45)ccc32)c1", "19%"),
    ("Cc1nn2c(=O)cc(N3CCO[C@H](C)C3)nc2n1Cc1cccc(Cl)c1Cl", "0%"),
    ("CN(C)CCOc1ccc(-c2cc(-c3ccc(Cl)c(O)c3)c(-c3ccncc3)[nH]2)cc1.Cl.Cl", "36%"),
]

Note: attention shifts to another entry.
Documented %Inh of `Cn1cc(-c2ccc3c(c2)CCN3C(=O)Cc2cc(F)cc(F)c2F)c2c(N)ncnc21` : 21%

* * *

# Test system: CSNK2A1
# measurement context: concentration: 1 μM, replicates: in singlicate; n = 1
Lab note: anything with %Inh below 20% is marked class 1; values at 20% or higher are marked class 0.

# mol, target system, qualitative label
data = [
    ("COc1cccc(C2=C(Nc3cccc(O)c3)C(=O)NC2=O)c1", "CSNK2A1", "class 1"),
    ("Cc1cc(-c2ccnc(Nc3cccc(C#N)c3)n2)cc(C)c1O", "CSNK2A1", "class 0"),
    ("COC(=O)Nc1nc2ccc(Oc3ccc(NC(=O)Nc4cc(C(F)(F)F)ccc4F)cc3)cc2[nH]1.Cl", "CSNK2A1", "class 1"),
]

Query: Determine whether this molecule shows %Inh lower than 20% (ties excluded): `O=C(O)C(F)(F)F.O=c1[nH]ccc2nc(N[C@@H]3CCNC3)nc(Nc3ccc4c(c3)S(=O)(=O)CC4)c12`
Result: class 0

Query: Determine whether this molecule shows %Inh lower than 20% (ties excluded): `Cc1cc(-c2c(-c3ccc(F)cc3)ncn2CCCN2CCOCC2)nc(N)n1`
Result: class 1

Query: Determine whether this molecule shows %Inh lower than 20% (ties excluded): `CCn1c(-c2nonc2N)nc2c(-c3ccccc3)ncc(OCCCN)c21.O=C(O)C(F)(F)F.O=C(O)C(F)(F)F`
Result: class 0

Query: Determine whether this molecule shows %Inh lower than 20% (ties excluded): `Cc1cccc(Nc2nc(N[C@H]3CCCC[C@H]3N)ncc2C(N)=O)c1.Cl`
Result: class 0

* * *

Let's look at some compounds and their measured %Inh.
# Tested on: PKN1
# measurement context: concentration: 1 μM, replicates: in singlicate; n = 1
Write down the value, and be sure its unit follows.

# compound, %Inh
records = [
    ("Cc1ccc(NC(=O)c2cccc(N3CCCCC3)c2)cc1-c1ccc(C(=O)NCC2CC2)cc1 [GSK1917008]", "17%"),
    ("c1ccc(Oc2ccc(Nc3ccnc4cc(-c5ccc(CN6CCCCC6)o5)ccc34)cc2)nc1 [GW567143]", "0%"),
    ("COc1cc(Nc2nccc(N3CCC(NC(=O)Nc4ccc5c(c4)OCO5)C3)n2)cc(OC)c1OC (stereo not shown) [GSK1379766]", "35%"),
]

Documented %Inh of Cc1cc(-c2c(-c3ccc(F)cc3)ncn2CCCN2CCOCC2)nc(N)n1 [SB-222517] : 0%

* * *

# Test system: CTK
# Construct: gene MATK
# measurement context: concentration: 1 μM, replicates: in singlicate; n = 1
reported endpoint: %Inh (%)
Provide only the numeric value, understood in %.

# compound, number
measured = [
    ("O=C1NC(=O)C(c2ccccc2Cl)=C1Nc1cccc(Cl)c1 [SB-342409]", 24),
    ("Nc1ncc(-c2ccc3nccc(-c4ccncc4)c3c2)cc1S(=O)(=O)N1CCCCC1 [GSK1693850]", 0),
    ("O=C(Nc1n[nH]c2cc(-c3cccs3)ccc12)C1CC1 [SB-731284]", 45),
]

Documented %Inh of O=C(Nc1n[nH]c2nc(-c3cccc(O)c3)ccc12)C1CC1 [SB-711805] : 0
